- Test target: cynomolgus monkey (cyno) TIGIT protein (cynomolgus monkey, UniProt A0A7N9I9V4 89-209)
- Sequence (A0A7N9I9V4 entry or part of it): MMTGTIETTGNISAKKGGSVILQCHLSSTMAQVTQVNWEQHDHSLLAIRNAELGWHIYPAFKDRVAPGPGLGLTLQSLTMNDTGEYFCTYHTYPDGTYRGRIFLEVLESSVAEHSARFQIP
- Test name: SPR, captured mAb
- Excerpt: Briefly, a series S CM5 biosensor chip was activated with N-ethyl-N′-(3-dimethylaminopropyl)-carbodiimide hydrochloride (EDC) and N-hydroxysuccinimide (NHS) reagents according to the supplier's (GE Healthcare Biosciences, Piscataway, N.J.) instructions, and a human antibody capture kit was applied to couple goat anti-human Fc IgGs in order to achieve approximately 10,000 response units (RU) on each flow cell, followed by blocking un-reacted groups with 1M ethanolamine. […]
Reported endpoint: Kd (nM)
Give just the numeric value; nM need not be written.

h6B2.L2H5 (antibody, V domains shown, Fully humanized version; FR/HVR pieces in order) VH: EVTLKESGPALVKPTQTLTLTCTFSGFSLSTYGMGVSWIRQPPGKALEWLASIWWNGNTYYNPSLKSRLTITKDTSKNQVVLTMTNMDPVDTATYYCAHTGGAVITWFAYWGQGTLVTVSS VL: DIQMTQSPSSLSASVGDRVTITCKASQSVGKNIAWYQQKPGKAPKLLIYYASNRYTGVPSRFSGSGSGTDFTFTISSLQPEDIATYYCQHIYNSPYPFGQGTKVEIK; 0.97
h15C8.L1H1 (antibody, V domains shown, First humanized version; FR/HVR pieces in order; also called h1.15C8.L1H1) VH: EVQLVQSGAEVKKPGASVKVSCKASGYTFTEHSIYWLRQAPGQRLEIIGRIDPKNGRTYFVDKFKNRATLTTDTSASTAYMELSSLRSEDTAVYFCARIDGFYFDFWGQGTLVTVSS VL: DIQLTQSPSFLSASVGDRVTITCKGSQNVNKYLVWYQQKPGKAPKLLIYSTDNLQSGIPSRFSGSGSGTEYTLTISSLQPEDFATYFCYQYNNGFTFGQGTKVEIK; 0.94

Field: next binder
Form: binder = h7E7.L3H1 (antibody, V domains shown, VL: Y71F against h7E7.L1H1; FR/HVR pieces) VH: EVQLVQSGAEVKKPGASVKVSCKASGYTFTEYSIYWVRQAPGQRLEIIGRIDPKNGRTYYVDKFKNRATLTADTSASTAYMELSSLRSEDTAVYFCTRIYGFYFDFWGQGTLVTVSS VL: DIQLTQSPSFLSASVGDRVTITCKGSQNVNKYLVWYQQKPGKAPKLLIYNTDNLQSGIPSRFSGSGSGTEFTLTISSLQPEDFATYFCYQYNNGFTFGQGTKVEIK ; Kd = 0.95
